- Species on record: Rattus norvegicus
- Test Details: Compound tested to inhibit (LPO) lipid peroxidation was determined in rat brain microsomes
- Type: functional
# reported IC50; entries follow
The reply should contain only the number, in µM.

1) Cc1cc(C(C)(C)C)c(O)c(C(C)(C)C)c1 [BUTYLATED HYDROXYTOLUENE] :: 30

Please look up its IC50: CC1=NN(c2ccccc2)C(=O)C1 [EDARAVONE] 32
